# target_or_test_system: T1, mouse PRLR on HEK293/mPRLR cells (Mus musculus, UniProt Q08501)
# T1 construct: HA; expressed in transfected cells; host or cells: HEK293
# T1 sequence (Q08501 20-608): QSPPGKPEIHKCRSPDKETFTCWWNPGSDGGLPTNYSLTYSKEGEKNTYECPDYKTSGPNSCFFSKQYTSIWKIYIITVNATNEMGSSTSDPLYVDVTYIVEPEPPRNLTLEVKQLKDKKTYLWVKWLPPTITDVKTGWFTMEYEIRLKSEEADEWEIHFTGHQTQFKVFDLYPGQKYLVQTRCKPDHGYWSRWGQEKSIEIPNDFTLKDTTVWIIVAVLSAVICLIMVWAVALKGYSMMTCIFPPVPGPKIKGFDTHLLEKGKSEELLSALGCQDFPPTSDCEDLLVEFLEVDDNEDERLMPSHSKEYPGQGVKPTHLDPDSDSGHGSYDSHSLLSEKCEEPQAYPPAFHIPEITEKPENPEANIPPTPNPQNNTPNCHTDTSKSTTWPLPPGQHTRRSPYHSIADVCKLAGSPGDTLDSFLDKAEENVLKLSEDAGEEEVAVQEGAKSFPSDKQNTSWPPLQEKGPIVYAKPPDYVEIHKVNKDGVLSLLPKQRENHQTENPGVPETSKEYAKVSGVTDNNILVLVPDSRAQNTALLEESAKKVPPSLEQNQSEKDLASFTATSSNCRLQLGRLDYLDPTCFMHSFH
# experiment_summary: FACS cell surface binding
observed_property: FACS Cell Binding (Fold Above Background)
Give bare numbers, in Fold Above Background.

// FACS Cell Binding value for H1H6975N: anti-PRLR antibody, human IgG1 Fc form of H2M6975N of Table 1; HCVR/LCVR SEQ ID NOs 370/378 (antibody, V domains shown, human IgG1 Fc) VH: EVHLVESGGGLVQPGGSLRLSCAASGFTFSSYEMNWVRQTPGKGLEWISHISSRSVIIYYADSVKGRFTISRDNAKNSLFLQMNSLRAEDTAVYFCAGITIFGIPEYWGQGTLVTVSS VL: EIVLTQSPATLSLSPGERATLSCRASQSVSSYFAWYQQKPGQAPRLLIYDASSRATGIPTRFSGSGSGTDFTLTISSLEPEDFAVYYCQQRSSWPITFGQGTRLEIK : 1
